Each item that follows carries a reported SI (CC50/IC50).
TARGET DESC: SARS-CoV 3CL^pro (Severe acute respiratory syndrome coronavirus)

Oc1cc(O)cc(Oc2c(O)cc(O)c3c2Oc2c(O)cc4oc5c(Oc6cc(O)cc(O)c6)c(O)cc(O)c5c4c2O3)c1
>1.1
Oc1cc(O)cc(Oc2c(O)cc(O)c3c2Oc2c(O)cc(Oc4c(O)cc(Oc5c(O)cc(O)c6c5Oc5c(O)cc(O)cc5O6)cc4O)cc2O3)c1
>2.9
Oc1cc(O)cc(Oc2c(Oc3c(O)cc(O)cc3O)cc(O)c3c2Oc2c(O)cc(O)cc2O3)c1
>1.8
Oc1cc(O)cc(Oc2c(O)cc(O)c3c2Oc2c(O)cc(O)cc2O3)c1
<1
Oc1cc(O)c2oc3cc(O)c4oc5cc(O)cc(O)c5oc4c3oc2c1 [Compound 4, dioxinodehydroeckol]
>1.4

Here is another compound to look at.
# return recorded SI (CC50/IC50) for input "Oc1cc(O)cc(Oc2c(O)cc(O)c3c2Oc2c(O)cc(Oc4c(O)cc(O)cc4O)cc2O3)c1"
>1.8
